Biological target: T1, Nt.BspD6I (UniProt A3FEV7 1-604)
T1 sequence: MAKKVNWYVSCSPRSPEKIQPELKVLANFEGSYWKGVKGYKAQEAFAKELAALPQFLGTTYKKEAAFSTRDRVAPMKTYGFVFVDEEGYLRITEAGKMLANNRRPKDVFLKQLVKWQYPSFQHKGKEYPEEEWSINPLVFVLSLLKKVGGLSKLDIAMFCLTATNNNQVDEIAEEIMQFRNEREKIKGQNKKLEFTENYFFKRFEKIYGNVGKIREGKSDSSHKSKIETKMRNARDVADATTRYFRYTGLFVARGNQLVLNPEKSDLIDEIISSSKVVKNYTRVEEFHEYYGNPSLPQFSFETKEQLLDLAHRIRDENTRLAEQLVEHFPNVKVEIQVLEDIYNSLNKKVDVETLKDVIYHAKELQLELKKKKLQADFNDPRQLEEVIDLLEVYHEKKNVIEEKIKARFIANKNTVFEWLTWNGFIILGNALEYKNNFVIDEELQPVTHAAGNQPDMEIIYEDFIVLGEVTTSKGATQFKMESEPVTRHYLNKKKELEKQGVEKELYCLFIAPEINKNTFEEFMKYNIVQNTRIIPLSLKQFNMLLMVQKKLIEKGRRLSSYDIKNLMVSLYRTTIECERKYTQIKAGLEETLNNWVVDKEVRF
Experiment: stopped-flow Trp fluorescence; 10 mM Ca2+; Stopped-flow, 37 °C, 10 mM CaCl2 or 10 mM MgCl2 (or 0.4 mM EDTA without divalent metal); 1 µM enzyme (Trp) or 1 µM DNA (FRET); buffer, salt and pH not in the supplied text
Conditions: blunt
parameterMeasured: Kd (nM)
// return numeric value only (unit: nM, not printed)

(Q) Would you kindly share the measured Kd for VI-30N (dsDNA) DNA 1: GTATGAAGCTAGAGCCAGGTTGGCAGCATC DNA 2: GATGCTGCCAACCTGGCTCTAGCTTCATAC ?
(A) 60
